# reported IC50; entries follow
System: RS4; 11 with G101V mutation
ASSAY_PROTOCOL: In vitro anti-proliferation assay (ATPlite luminescence) in BCL-2-dependent ALL cell line RS4;11 with G101V mutation
Assay type: cell-based
CONDITION_LABEL: cellular anti-proliferative IC50, about 72 hours, medium with 10% FBS, ATPlite; read-out: RS411-G101V IC50
MEASUREMENT_LABEL: IC50 (nM)

>>> endpoint_result("Cc1ccccc1[C@@H]1CN(C2CCC(N3CCOC[C@@H]3C)CC2)CCN1C1CC2(CCN(c3ccc(C(=O)NS(=O)(=O)c4cc5c(c([N+](=O)[O-])c4)N[C@H](C4CCOCC4)CO5)c(N4c5cc6cc[nH]c6nc5O[C@H]5COCC[C@@H]54)c3)CC2)C1 (some centres unmarked) [Example 203]")
68.6
>>> endpoint_result("Cc1ccccc1[C@@H]1CN(CC2CCOCC2)CCN1C1CC2(CCN(c3ccc(C(=O)NS(=O)(=O)c4ccc(NC[C@H]5CC[C@](C)(O)CC5)c([N+](=O)[O-])c4)c(N4c5cc6cc[nH]c6nc5O[C@H]5COCC[C@@H]54)c3)CC2)C1 [Example 156]")
12.2

---

# reported pIC50; entries follow
System: RS4; 11 with G101V mutation
ASSAY_PROTOCOL: In vitro anti-proliferation assay (ATPlite luminescence) in BCL-2-dependent ALL cell line RS4;11 with G101V mutation
Type: cell-based
CONDITION_LABEL: cellular anti-proliferative IC50, about 72 hours, medium with 10% FBS, ATPlite; read-out: RS411-G101V IC50
pIC50: −log10 of the molar value.
MEASUREMENT_LABEL: pIC50

>>> endpoint_result("Cc1cc2c(CN3CCN(C4CC5(CCN(c6ccc(C(=O)NS(=O)(=O)c7ccc(NCC8CCC(C)(O)CC8)c([N+](=O)[O-])c7)c(N7c8cc9cc[nH]c9nc8O[C@H]8COCC[C@@H]87)c6)CC5)C4)[C@H](c4ccccc4C)C3)cnc(N3CCOCC3)c2o1 (stereo partly shown)")
8.09
>>> endpoint_result("COc1cc(CN2CCN(C3CC4(CCN(c5ccc(C(=O)NS(=O)(=O)c6ccc(NCC7CCC(C)(O)CC7)c([N+](=O)[O-])c6)c(N6c7cc8cc[nH]c8nc7O[C@H]7COCC[C@@H]76)c5)CC4)C3)[C@H](c3ccccc3C)C2)cnc1N1CCOC[C@H]1C (stereo partly shown)")
8.46
>>> endpoint_result("COc1cc(CN2CCN(C3CC4(CCN(c5ccc(C(=O)NS(=O)(=O)c6ccc(NCC7CCC(C)(O)CC7)c([N+](=O)[O-])c6)c(N6c7cc8cc[nH]c8nc7O[C@H]7COCC[C@@H]76)c5)CC4)C3)[C@@H](c3ccccc3OC(C)C)C2)cnc1OC (stereo partly shown)")
8.16
>>> endpoint_result("CC(C)Oc1ccccc1[C@H]1CN(Cc2cnc3c(c2)OCCO3)CCN1C1CC2(CCN(c3ccc(C(=O)NS(=O)(=O)c4ccc(NCC5CCC(C)(O)CC5)c([N+](=O)[O-])c4)c(N4c5cc6cc[nH]c6nc5O[C@H]5COCC[C@@H]54)c3)CC2)C1 (stereo partly shown)")
7.88

---

# reported IC50; entries follow
Tested on: RS4; 11 with G101V mutation
ASSAY_PROTOCOL: In vitro anti-proliferation assay (ATPlite luminescence) in BCL-2-dependent ALL cell line RS4;11 with G101V mutation
Format: cell-based
CONDITION_LABEL: Homo sapiens, RS4-11, 72 h; read-out: RS411-G101V IC50
MEASUREMENT_LABEL: IC50 (nM)

>>> endpoint_result("COc1cc([C@@H](C)N2CCN(C3CC4(CCN(c5ccc(C(=O)NS(=O)(=O)c6cc7c(c([N+](=O)[O-])c6)N[C@H](C6CCOCC6)CO7)c(N6c7cc8cc[nH]c8nc7O[C@H]7COCC[C@@H]76)c5)CC4)C3)[C@H](c3ccccc3C)C2)cnc1N1CCOC[C@@H]1C")
2.53
>>> endpoint_result("CC(C)Oc1ccccc1[C@@H]1CN([C@H]2CCOc3nc(N4CCOC[C@@H]4C)c(F)cc32)CCN1C1CC2(CCN(c3ccc(C(=O)NS(=O)(=O)c4cc5c(c([N+](=O)[O-])c4)N[C@H](C4CCOCC4)CO5)c(N4c5cc6cc[nH]c6nc5O[C@H]5COCC[C@@H]54)c3)CC2)C1")
121
>>> endpoint_result("CC(C)Oc1ccccc1[C@@H]1CN([C@@H]2CCOc3c(F)cc(F)cc32)CCN1C1CC2(CCN(c3ccc(C(=O)NS(=O)(=O)c4cc5c(c([N+](=O)[O-])c4)N[C@H](C4CCOCC4)CO5)c(N4c5cc6cc[nH]c6nc5O[C@H]5COCC[C@@H]54)c3)CC2)C1")
48
>>> endpoint_result("Cc1ccccc1[C@@H]1CN(Cc2cnc(N3CCOC[C@@H]3C)c(OC(C)C)c2)CCN1C1CC2(CCN(c3ccc(C(=O)NS(=O)(=O)c4cc5c(c([N+](=O)[O-])c4)N[C@H](C4CCOCC4)CO5)c(N4c5cc6cc[nH]c6nc5O[C@H]5COCC[C@@H]54)c3)CC2)C1")
11.1

---

Test system: RS4; 11 with G101V mutation
ASSAY_PROTOCOL: In vitro anti-proliferation assay (ATPlite luminescence) in BCL-2-dependent ALL cell line RS4;11 with G101V mutation
Assay type: cell-based
CONDITION_LABEL: cellular anti-proliferative IC50, about 72 hours, medium with 10% FBS, ATPlite; read-out: RS411-G101V IC50
# reported IC50; entries follow
MEASUREMENT_LABEL: IC50 (µM)

>>> endpoint_result("Cc1ccccc1[C@@H]1CN(C2CCOCC2)CCN1C1CC2(CCN(c3ccc(C(=O)NS(=O)(=O)c4ccc(NCC5CCC(C)(O)CC5)c([N+](=O)[O-])c4)c(N4c5cc6cc[nH]c6nc5O[C@H]5COCC[C@@H]54)c3)CC2)C1 (stereo partly shown)")
0.0118
>>> endpoint_result("Cc1ccccc1[C@@H]1CN(C2CCC3(CCOCC3)CC2)CCN1C1CC2(CCN(c3ccc(C(=O)NS(=O)(=O)c4cc5c(c([N+](=O)[O-])c4)N[C@H](C4CCOCC4)CO5)c(N4c5cc6cc[nH]c6nc5O[C@H]5COCC[C@@H]54)c3)CC2)C1 (stereo partly shown)")
0.0151
>>> endpoint_result("COc1cc(CN2CCN([C@@H]3CC4(CCN(c5ccc(C(=O)NS(=O)(=O)c6ccc(NCC7CCC(C)(O)CC7)c([N+](=O)[O-])c6)c(N6c7cc8cc[nH]c8nc7O[C@H]7COCC[C@@H]76)c5)CC4)[C@H]3C)[C@@H](c3ccccc3OC(C)C)C2)cnc1N1CCOCC1 (stereo partly shown)")
0.0479
>>> endpoint_result("CC(C)Oc1ccccc1[C@@H]1CN(Cc2ccc(F)c(F)c2)CCN1C1CC2(CCN(c3nc(N4c5cc6cc[nH]c6nc5O[C@H]5COCC[C@@H]54)c(C(=O)NS(=O)(=O)c4cc5c(c([N+](=O)[O-])c4)N[C@H](C4CCOCC4)CO5)cc3F)CC2)C1 [Example 235]")
2.27

---

# reported IC50; entries follow
Test system: RS4; 11 with G101V mutation
ASSAY_PROTOCOL: In vitro anti-proliferation assay (ATPlite luminescence) in BCL-2-dependent ALL cell line RS4;11 with G101V mutation
Assay type: cell-based
CONDITION_LABEL: Homo sapiens, RS4-11, 72 h; read-out: RS411-G101V IC50
MEASUREMENT_LABEL: IC50 (nM)

>>> endpoint_result("COc1cc([C@H](C)N2CCN(C3CC4(CCN(c5ccc(C(=O)NS(=O)(=O)c6cc7c(c([N+](=O)[O-])c6)N[C@H](C6CCOCC6)CO7)c(N6c7cc8cc[nH]c8nc7O[C@H]7COCC[C@@H]76)c5)CC4)C3)[C@H](c3ccccc3C)C2)cnc1N1CCOC[C@@H]1C")
73.3
>>> endpoint_result("CC(C)Oc1ccccc1[C@@H]1CN(c2ccncc2)CCN1C1CC2(CCN(c3ccc(C(=O)NS(=O)(=O)c4cc5c(c([N+](=O)[O-])c4)N[C@H](C4CCOCC4)CO5)c(N4c5cc6cc[nH]c6nc5O[C@H]5COCC[C@@H]54)c3)CC2)C1")
223
>>> endpoint_result("CC(C)Oc1ccccc1[C@@H]1CN(C2CCOCC2)CCN1C1CC2(CCN(c3ccc(C(=O)NS(=O)(=O)c4cc5c(c([N+](=O)[O-])c4)N[C@H](C4CCOCC4)CO5)c(N4c5cc6cc[nH]c6nc5O[C@H]5COCC[C@@H]54)c3)CC2)C1")
58.1
>>> endpoint_result("CC(C)Oc1ccccc1[C@@H]1CN([C@H]2CCCOC2)CCN1C1CC2(CCN(c3ccc(C(=O)NS(=O)(=O)c4cc5c(c([N+](=O)[O-])c4)N[C@H](C4CCOCC4)CO5)c(N4c5cc6cc[nH]c6nc5O[C@H]5COCC[C@@H]54)c3)CC2)C1")
67.2
>>> endpoint_result("Cc1ccc(CN2CCN(C3CC4(CCN(c5ccc(C(=O)NS(=O)(=O)c6cc7c(c([N+](=O)[O-])c6)N[C@H](C6CCOCC6)CO7)c(N6c7cc8cc[nH]c8nc7O[C@H]7COCC[C@@H]76)c5)CC4)C3)[C@H](c3ccccc3OC(C)C)C2)cn1")
3.19
>>> endpoint_result("Cc1ccccc1[C@@H]1CN(C2CCOCC2)CCN1C1CC2(CCN(c3ccc(C(=O)NS(=O)(=O)c4cc5c(c([N+](=O)[O-])c4)N[C@H](C4CCOCC4)CO5)c(N4c5cc6cc[nH]c6nc5O[C@H]5COCC[C@@H]54)c3)CC2)C1")
73.3
>>> endpoint_result("Cc1ccccc1[C@@H]1CN([C@@H]2CCCOC2)CCN1C1CC2(CCN(c3ccc(C(=O)NS(=O)(=O)c4cc5c(c([N+](=O)[O-])c4)N[C@H](C4CCOCC4)CO5)c(N4c5cc6cc[nH]c6nc5O[C@H]5COCC[C@@H]54)c3)CC2)C1")
40.9
